Tested on: zebrafish embryos
Experiment: Dose-response zebrafish live assay, single chemicals (developmental toxicity)
Type: in vivo
Settings: single chemical, 2 dpf; tested up to 200 µM
Is lowest dose causing significant developmental abnormalities (toxic at) at least 20 µM? Then condition met. If not, condition not met.

# example entries with known answers
compound	assigned.category
CC(C)=CC1C(C(=O)OCN2C(=O)C3=C(CCCC3)C2=O)C1(C)C (stereo not shown) [Tetramethrin]	condition not met
COc1cnc(OC)n2nc(NS(=O)(=O)c3c(OCC(F)F)cccc3C(F)(F)F)nc12 [Penoxsulam]	condition met
CCCCOCN(C(=O)CCl)c1c(CC)cccc1CC [Butachlor]	condition met
CC(CNCc1ccccc1O)NCc1ccccc1O (stereo not shown) [Motor fuel oil]	condition not met
CC1(C)C(C(=O)OC(C#N)c2cccc(Oc3ccccc3)c2)C1(C)C (stereo not shown) [Fenpropathrin]	condition not met
O=C(OC1CCCCC1)c1ccccc1C(=O)OC1CCCCC1 [Dicyclohexyl Phthalate, Dicyclohexyl Phthalate (DCHP)]	condition met
CC(C)(C)[C@@H](O)[C@@H](Cc1ccc(Cl)cc1)n1cncn1 (racemic) [Paclobutrazol]	condition met
CCCCC(CC)COC(=O)c1ccccc1C(=O)OCC(CC)CCCC (stereo not shown) [Bis-(2-Ethylhexyl) Phthalate]	condition met

input: Is lowest dose causing significant developmental abnormalities (toxic at) for CC/C(=N\OC/C=C/Cl)C1=C(O)CC(C2CCOCC2)CC1=O (stereo not shown) [Tepraloxydim] at or above 20 µM?
output: condition met

input: Is lowest dose causing significant developmental abnormalities (toxic at) for Oc1c(Br)cc(Br)cc1Br [2,4,6-Tribromophenol] at or above 20 µM?
output: condition not met

input: Is lowest dose causing significant developmental abnormalities (toxic at) for COCc1cnc(C2=NC(C)(C(C)C)C(=O)N2)c(C(=O)O)c1 (stereo not shown) [Imazamox] at or above 20 µM?
output: condition met

input: Is lowest dose causing significant developmental abnormalities (toxic at) for COc1nc(C)nc(NC(=O)NS(=O)(=O)c2ccccc2OCCCl)n1 [Triasulfuron] at or above 20 µM?
output: condition met
